Reported ELISA value (Normal ELISA) by item:
# target_entity: T1, Proleukin® (aldesleukin) (human, UniProt P60568 21-153, limits assumed)
# T1 construct: Variant of human wt IL-2 with C145S (C125S on mature IL-2); also called IL-2 (Proleukin®); human IL-2 (Proleukin)
# experiment: ELISA, coated Proleukin, HEK293F supernatant 1:2

>  <binder>
Antibody No: 26 (antibody, human IgG1, kappa, N297A, V domains shown, VH N58Y + T30S; VK WT; HEK293F supernatant; 108929 is kept apart) VH: EVQLVQSGAEVKKPGESLKISCKGSGYAFSNYLIEWVRQMPGKGLEWMGVINPGSGGTYYNEKFKGQVTISADKSISTAYLQWSSLKASDTAMYYCARWRGEGYYAYFDVWGQGTTVTVSS VL: AIRLTQSPSSFSASTGDRVTITCKASQSVDYQGDSYMNWYQQKPGKAPKLLIYAASNLESGVPSRFSGSGSGTDFTLTISSLQSEDFATYYCQQSNEDPYTFGGGTKVEIKR

>  <ELISA value (Normal ELISA) (luminescence signal)>
4030

$$$$
>  <binder>
Antibody No: 18 (antibody, human IgG1, kappa, N297A, V domains shown, VK A50S; HEK293F supernatant) VH: EVQLVQSGAEVKKPGESLKISCKGSGYAFTNYLIEWVRQMPGKGLEWMGVINPGSGGTYYNEKFKGQVTISADKSISTAYLQWSSLKASDTAMYYCARWRGEGYYAYYDVWGQGTTVTVSS VL: AIRLTQSPSSFSASTGDRVTITCKASQSVDYQGDSYMNWYQQKPGKAPKLLIYSASNLESGVPSRFSGSGSGTDFTLTISSLQSEDFATYYCQQSNEDPYTFGGGTKVEIKR

>  <ELISA value (Normal ELISA) (luminescence signal)>
8060

$$$$
>  <binder>
Antibody No: 22 (antibody, human IgG1, kappa, N297A, V domains shown, VK M33L; HEK293F supernatant) VH: EVQLVQSGAEVKKPGESLKISCKGSGYAFSNYLIEWVRQMPGKGLEWMGVINPGSGGTNYNEKFKGQVTISADKSISTAYLQWSSLKASDTAMYYCARWRGEGYYAYYDVWGQGTTVTVSS VL: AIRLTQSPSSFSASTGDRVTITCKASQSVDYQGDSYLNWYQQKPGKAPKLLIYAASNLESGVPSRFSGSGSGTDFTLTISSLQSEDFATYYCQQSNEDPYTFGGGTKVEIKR

>  <ELISA value (Normal ELISA) (luminescence signal)>
3970

$$$$
>  <binder>
Antibody No: 28 (antibody, human IgG1, kappa, N297A, V domains shown, VH N58Y + T30S; VK A50S; HEK293F supernatant; 108930 is kept apart) VH: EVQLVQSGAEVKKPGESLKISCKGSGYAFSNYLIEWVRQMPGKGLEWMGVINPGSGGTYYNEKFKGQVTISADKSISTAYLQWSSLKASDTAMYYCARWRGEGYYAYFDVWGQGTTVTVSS VL: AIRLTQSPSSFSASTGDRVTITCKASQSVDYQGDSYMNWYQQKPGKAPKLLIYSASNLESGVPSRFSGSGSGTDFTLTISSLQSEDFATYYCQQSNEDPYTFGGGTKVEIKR

>  <ELISA value (Normal ELISA) (luminescence signal)>
18500

$$$$
>  <binder>
Antibody No: 14 (antibody, human IgG1, kappa, N297A, V domains shown, VH N58Y; VK A50T; HEK293F supernatant) VH: EVQLVQSGAEVKKPGESLKISCKGSGYAFTNYLIEWVRQMPGKGLEWMGVINPGSGGTYYNEKFKGQVTISADKSISTAYLQWSSLKASDTAMYYCARWRGEGYYAYFDVWGQGTTVTVSS VL: AIRLTQSPSSFSASTGDRVTITCKASQSVDYQGDSYMNWYQQKPGKAPKLLIYTASNLESGVPSRFSGSGSGTDFTLTISSLQSEDFATYYCQQSNEDPYTFGGGTKVEIKR

>  <ELISA value (Normal ELISA) (luminescence signal)>
7180

$$$$
>  <binder>
Antibody No: 30 (antibody, human IgG1, kappa, N297A, V domains shown, VH N58Y + T30S; VK M33L + A50S; HEK293F supernatant) VH: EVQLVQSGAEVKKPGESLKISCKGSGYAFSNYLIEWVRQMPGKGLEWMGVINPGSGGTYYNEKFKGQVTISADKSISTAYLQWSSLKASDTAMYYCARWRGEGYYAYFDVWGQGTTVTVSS VL: AIRLTQSPSSFSASTGDRVTITCKASQSVDYQGDSYLNWYQQKPGKAPKLLIYSASNLESGVPSRFSGSGSGTDFTLTISSLQSEDFATYYCQQSNEDPYTFGGGTKVEIKR

>  <ELISA value (Normal ELISA) (luminescence signal)>
14900

$$$$
>  <binder>
Antibody No: 24 (antibody, human IgG1, kappa, N297A, V domains shown, VK A50T; HEK293F supernatant) VH: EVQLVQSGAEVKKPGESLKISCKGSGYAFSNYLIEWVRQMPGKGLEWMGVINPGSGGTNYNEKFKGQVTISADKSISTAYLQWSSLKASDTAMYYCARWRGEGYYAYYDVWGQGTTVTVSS VL: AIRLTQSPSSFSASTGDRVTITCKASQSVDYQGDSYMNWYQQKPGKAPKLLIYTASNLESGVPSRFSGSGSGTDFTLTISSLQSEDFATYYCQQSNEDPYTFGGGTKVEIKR

>  <ELISA value (Normal ELISA) (luminescence signal)>
2770

$$$$
>  <binder>
Antibody No: 16 (antibody, human IgG1, kappa, N297A, V domains shown, VK WT; HEK293F supernatant) VH: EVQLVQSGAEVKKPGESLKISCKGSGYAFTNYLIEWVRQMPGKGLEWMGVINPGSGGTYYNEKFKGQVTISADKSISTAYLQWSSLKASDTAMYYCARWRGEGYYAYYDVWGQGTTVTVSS VL: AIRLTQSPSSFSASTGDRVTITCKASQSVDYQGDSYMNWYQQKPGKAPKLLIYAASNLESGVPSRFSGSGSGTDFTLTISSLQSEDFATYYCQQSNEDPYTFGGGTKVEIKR

>  <ELISA value (Normal ELISA) (luminescence signal)>
10200

$$$$
>  <binder>
104348_VH5D98E_VK1D28Q (antibody, human IgG1, kappa, N297A, V domains shown, also called Antibody No: 1; parental antibody) VH: EVQLVQSGAEVKKPGESLKISCKGSGYAFTNYLIEWVRQMPGKGLEWMGVINPGSGGTNYNEKFKGQVTISADKSISTAYLQWSSLKASDTAMYYCARWRGEGYYAYFDVWGQGTTVTVSS VL: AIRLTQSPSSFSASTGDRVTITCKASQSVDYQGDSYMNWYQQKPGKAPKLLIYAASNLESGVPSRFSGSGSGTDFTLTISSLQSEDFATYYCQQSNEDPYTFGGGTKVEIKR

>  <ELISA value (Normal ELISA) (luminescence signal)>
1180

$$$$
>  <binder>
Antibody No: 4 (antibody, human IgG1, kappa, N297A, V domains shown, VH WT; VK A50T; HEK293F supernatant) VH: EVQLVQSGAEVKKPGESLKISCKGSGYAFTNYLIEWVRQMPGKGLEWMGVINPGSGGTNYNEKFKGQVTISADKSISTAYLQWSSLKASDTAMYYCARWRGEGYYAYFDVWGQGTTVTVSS VL: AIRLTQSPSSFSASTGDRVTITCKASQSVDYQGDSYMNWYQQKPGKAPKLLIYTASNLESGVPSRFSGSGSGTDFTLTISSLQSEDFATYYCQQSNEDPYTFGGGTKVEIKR

>  <ELISA value (Normal ELISA) (luminescence signal)>
2180

$$$$
